// Bmax @ 300 nM (MFI) lookup, one value per entry
molecular target: T1, wild-type epidermal growth factor receptor (EGFR wt) (human, UniProt P00533 25-1210); test: flow cytometry on U87MG-EGFR wt cells
T1 construct: whole, on cells; also called wt EGFR; WT EGFR
Write the number in MFI without appending the unit.

Consider the following illustrative entries.
binder	Bmax @ 300 nM (MFI)
humanized 4E11 antibody hH2-hL3 (antibody, human IgG4 S228P, kappa, V domains shown, Human IgG4(S228P), C-terminal Lys deleted, human kappa; made in CHO cells; 17) for this name; 18) VH: QVQLQESGPGLVKPSQTLSLTCTVSGYSITSDYAWNWIRQPPGKGLEWIGYIGYNGRTSYNPSLKSRVTISRDTSKNQFSLKLSSVTAADTAVYYCARLGRGFAYWGQGTLVTVSS VL: DIQMTQSPSSLSASVGDRVTITCHASQGINSNIGWLQQKPGKAFKGLIYHGTNLEDGVPSRFSGSGSGTDYTLTISSLQPEDFATYYCVQYAQFPYTFGQGTKLEIKR	1420
humanized 4E11 antibody hH2-hL1 (antibody, human IgG4 S228P, kappa, V domains shown, Human IgG4(S228P), C-terminal Lys deleted, human kappa; made in CHO cells; 16) for this name; 16) VH: QVQLQESGPGLVKPSQTLSLTCTVSGYSITSDYAWNWIRQPPGKGLEWIGYIGYNGRTSYNPSLKSRVTISRDTSKNQFSLKLSSVTAADTAVYYCARLGRGFAYWGQGTLVTVSS VL: DIQMTQSPSSLSASVGDRVTITCHASQGINSNIGWYQQKPGKAPKLLIYHGTNLEDGVPSRFSGSGSGTDYTLTISSLQPEDFATYYCVQYAQFPYTFGQGTKLEIKR	319

Okay, now this binder:
Request: Query: Bmax @ 300 nM (MFI); subject: humanized 4E11 antibody hH3-hL3 (antibody, human IgG4 S228P, kappa, V domains shown, Human IgG4(S228P), C-terminal Lys deleted, human kappa; made in CHO cells; 17) for this name; 18) VH: QVQLQESGPGLVKPSQTLSLTCTVSGYSITSDYAWNWIRQPPGKGLEWMGYIGYNGRTSYNPSLKSRITISRDTSKNQFSLKLSSVTAADTAVYYCARLGRGFAYWGQGTLVTVSS VL: DIQMTQSPSSLSASVGDRVTITCHASQGINSNIGWLQQKPGKAFKGLIYHGTNLEDGVPSRFSGSGSGTDYTLTISSLQPEDFATYYCVQYAQFPYTFGQGTKLEIKR
Response: 1370
